biological target: purified human Hsp90; experiment: Binding Assay: fluorescence polarization with BODIPY-labeled geldanamycin; conditions: BODIPY-GM 10 nM, Hsp90 30 nM
pIC50: −log10 of the molar value.
endpoint: pIC50

Example entries and their recorded answers appear below.
COc1ccc(OC)c(Sc2nc3c(N)ncnc3n2CCC(NS(C)(=O)=O)C2CC2)c1 (centres unmarked) = 6.02
Nc1ncnc2c1nc(Sc1cc3c(cc1Br)OCO3)n2CCC1CCN(C(=O)C2CC2)CC1 = 6.96
COCC(=O)N1CCC(CCn2c(Sc3cc4c(cc3Br)OCO4)nc3c(N)ncnc32)CC1 = 6.89

1 = CC(C)(N)C(=O)N1CCC(CCn2c(Sc3cc4c(cc3Br)OCO4)nc3c(N)ncnc32)CC1
2 = Nc1ncnc2c1nc(Sc1cc3c(cc1Br)OCO3)n2CCCc1ccccc1
3 = Nc1ncnc2c1nc(Sc1cc3c(cc1Br)OCO3)n2CCc1ccsc1
Sequence the entries by pIC50, beginning with the highest number. Please write the labels in the order that was asked for.
3, 1, 2
(3: 7.14, 1: 6.74, 2: 6.15)

----------
tested on: purified human Hsp90; assay: Binding Assay: fluorescence polarization with BODIPY-labeled geldanamycin; conditions: 5 μM compound, BODIPY-GM 10 nM, Hsp90 30 nM
endpoint: % Inhibition at 5 μM Compound Concentration (%)

Nc1ncn(CCc2c(F)cccc2Cl)c2nc(Sc3cc4c(cc3Br)OCO4)nc1-2 = 18
COc1cc(CCn2c(Sc3cc4c(cc3Br)OCO4)nc3c(N)ncnc32)cc(OC)c1 = 80
CN(C)c1ccc(CCn2cnc(N)c3nc(Sc4cc5c(cc4Br)OCO5)nc2-3)cc1 = 21
Nc1ncn(CCc2cccc(C(F)(F)F)c2)c2nc(Sc3cc4c(cc3Br)OCO4)nc1-2 = 0
COc1cccc(Sc2nc3c(N)ncn(CC(=O)c4ccccc4)c-3n2)c1 = 0.0

I = COc1ccc(OC)c(Sc2nc3c(N)ncn(CCN4CCN(C5CCCC5)CC4)c-3n2)c1
II = CO[C@H](C)C(=O)N1CCC(CCn2cnc(N)c3nc(Sc4cc5c(cc4Br)OCO5)nc2-3)CC1
Choose between I and II : whose measured % Inhibition at 5 μM Compound Concentration value is numerically larger? Lab note: record the label of whichever item you select.
II
(II: 26%, I: 6%)

----------
molecular target: purified human Hsp90; experiment: Binding Assay: fluorescence polarization with BODIPY-labeled geldanamycin; conditions: BODIPY-GM 10 nM, Hsp90 30 nM
endpoint: IC50 (nM)

Example entries and their recorded answers appear below.
CCn1nnnc1N1CCC(CCn2c(Sc3cc4c(cc3Br)OCO4)nc3c(N)ncnc32)CC1 [Example 610] = 88
CC(=O)N1CCN(CCn2cnc(N)c3nc(Sc4cc5c(cc4Br)OCO5)nc2-3)CC1 [Example 383] = 21000
Nc1ncnc2c1nc(Sc1cc3c(cc1Br)OCO3)n2CCC1CCOCC1 [Example 353] = 57
C[C@@H](N)C(=O)N1CCC[C@@H](CCn2c(Sc3cc4c(cc3Br)OCO4)nc3c(N)ncnc32)C1 [Example 755] = 140
CC(C)C(Cn1c(Sc2cc3c(cc2Br)OCO3)nc2c(N)ncnc21)c1ccccc1 (centres unmarked) [Example 126] = 300
COc1ccc(OC)c(Sc2nc3c(N)ncnc3n2CCc2ccc(F)cc2F)c1 [Example 121] = 520

1 = C[C@@H](NC(=O)OC(C)(C)C)C(=O)N1CCC(CCn2c(Sc3cc4c(cc3Br)OCO4)nc3c(N)ncnc32)CC1 [Example 695]
2 = Nc1ncnc2c1nc(Sc1cc3c(cc1Br)OCO3)n2CCC1CCN(C(=O)C2CCCC2)CC1 [Example 510]
Hi there, can you help? I need to know whether 1 or 2 has lower measured IC50. Lab note: record the label of whichever item you select.
2

P = Nc1ncnc2c1nc(Sc1cc3c(cc1Br)OCO3)n2CCc1ccccc1C(F)(F)F [Example 290]
Q = Nc1ncnc2c1nc(Sc1cc3c(cc1Br)OCO3)n2CCC1CCN(Cc2ccccc2)CC1 [Example 599]
Hi there, can you help? I need to know whether P or Q has lower measured IC50. Lab note: record the label of whichever item you select.
P

I = CC(C)[C@H](NC(=O)OC(C)(C)C)C(=O)N1CCC(CCn2c(Sc3cc4c(cc3Br)OCO4)nc3c(N)ncnc32)CC1 [Example 713]
II = Nc1ncnc2c1nc(Sc1ccc3c(c1)OCO3)n2CCCn1cccc1 [Example 51]
III = Nc1ncnc2c1nc(Sc1cc3c(cc1Br)OCO3)n2CCc1c(F)cccc1Cl [Example 130]
IV = COc1cc(CCn2c(Sc3cc(OC)ccc3OC)nc3c(N)ncnc32)cc(OC)c1 [Example 193]
# rank by IC50, ascending (min first) Please write the labels in the order that was asked for.
III, IV, I, II
(III: 40 nM, IV: 310 nM, I: 495 nM, II: 1500 nM)

A = CC1(C(=O)N2CCC(CCn3c(Sc4cc5c(cc4Br)OCO5)nc4c(N)ncnc43)CC2)CC1 [Example 516]
B = Nc1ncnc2c1nc(Sc1cc3c(cc1Br)OCO3)n2CCc1ccccc1[N+](=O)[O-] [Example 207]
Choose between A and B : whose measured IC50 value is numerically larger? Lab note: record the label of whichever item you select.
A
(A: 600 nM, B: 38 nM)

----------
tested on: purified human Hsp90; test: Binding Assay: fluorescence polarization with BODIPY-labeled geldanamycin; details: 5 μM compound, BODIPY-GM 10 nM, Hsp90 30 nM
endpoint: % Inhibition at 5 μM Compound Concentration (%)

Example entries and their recorded answers appear below.
CC(=O)N1CCC(CCn2cnc(N)c3nc(Sc4nc5ccc([N+](=O)[O-])cc5s4)nc2-3)CC1 [Example 652] = 0.00
COc1ccc(OC)c(Sc2nc3c(N)ncn(CCc4cccc(I)c4)c-3n2)c1 [Example 138] = 0
COc1cccc(CCn2cnc(N)c3nc(Sc4cc5c(cc4Br)OCO5)nc2-3)c1 [Example 309] = 25.0
COc1ccc(OC)c(Sc2nc3c(N)ncnc3n2CCc2ccc(O)cc2)c1 [Example 76] = 6
CCCNC(=N)N1CCC(CCn2cnc(N)c3nc(Sc4cc5c(cc4Br)OCO5)nc2-3)CC1 [Example 619] = 76.00

1 = Nc1ncn(CCn2cnc3ccccc3c2=O)c2nc(Sc3cc4c(cc3Br)OCO4)nc1-2 [Example 270]
2 = Nc1ncnc2c1nc(Sc1cc3c(cc1Br)OCO3)n2CCc1cccc(C(F)(F)F)c1 [Example 165]
3 = COc1ccc(OC)c(Sc2nc3c(N)ncn(CC(c4ccccc4)C4CCCC4)c-3n2)c1 (stereo not drawn) [Example 104]
4 = CC(=O)c1ccc(CCn2cnc(N)c3nc(Sc4cc5c(cc4Br)OCO5)nc2-3)cc1 [Example 160]
Sequence the entries by % Inhibition at 5 μM Compound Concentration, beginning with the highest number. Please write the labels in the order that was asked for.
2, 3, 1, 4

P = Nc1ncn(CCC2CCN(C=O)CC2)c2nc(Sc3ncccc3Br)nc1-2 [Example 551]
Q = CCOc1ccc(OCC)c(Sc2nc3c(N)ncn(CCc4ccccc4)c-3n2)c1 [Example 190]
Choose between P and Q : whose measured % Inhibition at 5 μM Compound Concentration value is numerically larger? Lab note: record the label of whichever item you select.
Q
(Q: 8%, P: 0.00%)

1 = Nc1ncnc2c1nc(Sc1ccc3c(c1)OCO3)n2CCn1cccc1 [Example 49]
2 = CC(=O)Nc1ccc(Sc2nc3c(N)ncn(CCC4CCN(C=O)CC4)c-3n2)c(Cl)c1 [Example 549]
3 = Cc1cc(=O)oc2cc(Sc3nc4c(N)ncn(CCC5CCN(C=O)CC5)c-4n3)ccc12 [Example 533]
Sequence the entries by % Inhibition at 5 μM Compound Concentration, beginning with the highest number. Please write the labels in the order that was asked for.
1, 2, 3

1 = COc1cc(Br)c(Sc2nc3c(N)ncn(CCC4CCN(C(C)=O)CC4)c-3n2)cc1OC [Example 566]
2 = Nc1ncnc2c1nc(Sc1cc3c(cc1Br)OCO3)n2CCc1cccc(F)c1F [Example 161]
Hi there, can you help? I need to know whether 1 or 2 has lower measured % Inhibition at 5 μM Compound Concentration. Lab note: record the label of whichever item you select.
1

1 = Nc1ncn(CCc2ccccc2)c2nc(Sc3cc(OC(F)(F)F)ccc3Cl)nc1-2 [Example 229]
2 = CC(C)(C)OC(=O)N1CCCC(Cn2cnc(N)c3nc(Sc4cc5c(cc4Br)OCO5)nc2-3)C1 (stereo not drawn) [Example 642]
3 = CC(C)(C)OC(=O)N1CCC[C@H]1C(=O)N1CCC(CCn2cnc(N)c3nc(Sc4cc5c(cc4Br)OCO5)nc2-3)CC1 [Example 731]
4 = CCOc1ccc(OCC)c(Sc2nc3c(N)ncn(CCc4ccccc4Cl)c-3n2)c1 [Example 192]
5 = COc1ccc(OC)c(Sc2nc3c(N)ncn(CCc4cc(OC)c(OC)c(OC)c4)c-3n2)c1 [Example 90]
# rank by % Inhibition at 5 μM Compound Concentration, ascending (min first) Please write the labels in the order that was asked for.
4, 3, 5, 2, 1

I = Cc1ccc(C)c(CCn2cnc(N)c3nc(Sc4cc5c(cc4Br)OCO5)nc2-3)c1 [Example 125]
II = CCOC(=O)N1CCCCC1CCn1cnc(N)c2nc(Sc3cc4c(cc3Br)OCO4)nc1-2 (stereo not drawn) [Example 340]
Hi there, can you help? I need to know whether I or II has lower measured % Inhibition at 5 μM Compound Concentration. Lab note: record the label of whichever item you select.
I
(I: 12%, II: 23%)

1 = CCC(CC)N1CCN(CCn2cnc(N)c3nc(Sc4cc(OC)ccc4OC)nc2-3)CC1 [Example 628]
2 = CC(C)(C)OC(=O)N1C=C(CCn2cnc(N)c3nc(Sc4cc5c(cc4Br)OCO5)nc2-3)CCC1 [Example 463]
3 = N#Cc1cc2c(cc1Sc1nc3c(N)ncn(CCc4ccccc4)c-3n1)OCO2 [Example 321]
4 = Nc1ncn(CCn2cccc2)c2nc(Sc3ccc4c(c3)OCO4)nc1-2 [Example 50]
Sequence the entries by % Inhibition at 5 μM Compound Concentration, beginning with the highest number. Please write the labels in the order that was asked for.
3, 1, 2, 4

1 = Nc1ncn(CCC2CCN(C(=O)C3(C(F)(F)F)CC3)CC2)c2nc(Sc3cc4c(cc3Br)OCO4)nc1-2 [Example 527]
2 = COc1ccc(OC)c(Sc2nc3c(N)ncn(CCC(NC(=O)OC(C)(C)C)C4CCSCC4)c-3n2)c1 (stereo not drawn) [Example 669]
Hi there, can you help? I need to know whether 1 or 2 has lower measured % Inhibition at 5 μM Compound Concentration. Lab note: record the label of whichever item you select.
2
